These data points were gathered from patent US20260184713A1.

target: PKCη (Homo sapiens, UniProt P24723); construct: purchased Reaction Biology Corp; assay: HOTSPOT radiometric kinase assay; format: biochemical; details: Table 4 dose-response; read-out: PKCeta IC50 Values
Sequence (P24723 whole entry): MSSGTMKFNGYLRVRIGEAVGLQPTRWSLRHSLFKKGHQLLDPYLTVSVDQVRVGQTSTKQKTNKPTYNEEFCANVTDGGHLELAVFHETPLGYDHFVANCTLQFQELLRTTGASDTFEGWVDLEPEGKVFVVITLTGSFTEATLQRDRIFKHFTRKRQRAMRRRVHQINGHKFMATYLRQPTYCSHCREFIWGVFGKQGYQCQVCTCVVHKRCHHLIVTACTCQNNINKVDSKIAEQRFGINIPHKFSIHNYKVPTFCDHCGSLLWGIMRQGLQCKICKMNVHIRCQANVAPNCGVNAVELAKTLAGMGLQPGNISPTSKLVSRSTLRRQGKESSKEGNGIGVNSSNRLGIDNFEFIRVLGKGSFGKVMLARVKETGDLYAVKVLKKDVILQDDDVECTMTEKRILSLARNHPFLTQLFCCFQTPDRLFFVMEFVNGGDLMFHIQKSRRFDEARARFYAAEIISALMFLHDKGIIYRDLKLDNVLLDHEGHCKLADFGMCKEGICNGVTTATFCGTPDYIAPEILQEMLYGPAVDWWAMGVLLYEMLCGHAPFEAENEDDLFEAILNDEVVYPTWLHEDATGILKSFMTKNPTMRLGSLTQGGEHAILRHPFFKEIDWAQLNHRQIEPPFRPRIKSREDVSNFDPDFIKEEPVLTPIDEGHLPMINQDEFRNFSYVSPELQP
MEASURE_NAME: pIC50
In simple prose, pIC50 is minus the logarithm base ten of a concentration in moles per litre.

Which measured pIC50 value corresponds to Cn1cncc1C1=CN(c2ncnc3nc[nH]c23)CCS1 ?
6.74

====

biological target: RIα2:JPKAcα2 chimeric kinase holoenzyme (Homo sapiens); assay: JPKAcα chimeric kinase holoenzyme ELISA dose response
MEASURE_NAME: IC50

For CNCCNC(=O)C1=CN(c2ncnc3nc[nH]c23)CCS1 [Compound 183A050E] , what is its reported IC50?
1.01 to 10 µM

Now consider COCCNC(=O)C1=CN(c2ncnc3[nH]cnc23)CCS1 [Compound 183A050C] and answer again.
> 10 µM

Subsequent entry: O=C(NCCNC(=O)c1ccccn1)C1=CN(c2ncnc3nc[nH]c23)CCS1 [Compound 183A049C]
> 10 µM

Also need O=C(NCCNC(=O)c1ccccc1)C1=CN(c2ncnc3nc[nH]c23)CCS1 [Compound 183A049F] , thanks.
> 10 µM

Same question, NCCNC(=O)C1CN(c2ncnc3[nH]cnc23)CCS1 (centres unmarked) [Compound 183A051C] this time
> 10 µM

Also CC(=O)NCCNC(=O)C1=CN(c2ncnc3[nH]cnc23)CCS1 [Compound 183A050B] ?
> 10 µM

Here is the next compound: O=C(NCCO)C1=CN(c2ncnc3[nH]cnc23)CCS1 [Compound 183A050D]
> 10 µM

Input NCCNC(=O)C1=CN(c2ncnc3[nH]cnc23)CCS1 [Compound 183A049E]
0.1 to 1 µM

====

target: ERBB2/HER2 (Homo sapiens); assay: HOTSPOT radiometric kinase assay; settings: read-out: ERBB2/HER2 IC50; 10 μM ATP
Sequence (P04626 23-1255): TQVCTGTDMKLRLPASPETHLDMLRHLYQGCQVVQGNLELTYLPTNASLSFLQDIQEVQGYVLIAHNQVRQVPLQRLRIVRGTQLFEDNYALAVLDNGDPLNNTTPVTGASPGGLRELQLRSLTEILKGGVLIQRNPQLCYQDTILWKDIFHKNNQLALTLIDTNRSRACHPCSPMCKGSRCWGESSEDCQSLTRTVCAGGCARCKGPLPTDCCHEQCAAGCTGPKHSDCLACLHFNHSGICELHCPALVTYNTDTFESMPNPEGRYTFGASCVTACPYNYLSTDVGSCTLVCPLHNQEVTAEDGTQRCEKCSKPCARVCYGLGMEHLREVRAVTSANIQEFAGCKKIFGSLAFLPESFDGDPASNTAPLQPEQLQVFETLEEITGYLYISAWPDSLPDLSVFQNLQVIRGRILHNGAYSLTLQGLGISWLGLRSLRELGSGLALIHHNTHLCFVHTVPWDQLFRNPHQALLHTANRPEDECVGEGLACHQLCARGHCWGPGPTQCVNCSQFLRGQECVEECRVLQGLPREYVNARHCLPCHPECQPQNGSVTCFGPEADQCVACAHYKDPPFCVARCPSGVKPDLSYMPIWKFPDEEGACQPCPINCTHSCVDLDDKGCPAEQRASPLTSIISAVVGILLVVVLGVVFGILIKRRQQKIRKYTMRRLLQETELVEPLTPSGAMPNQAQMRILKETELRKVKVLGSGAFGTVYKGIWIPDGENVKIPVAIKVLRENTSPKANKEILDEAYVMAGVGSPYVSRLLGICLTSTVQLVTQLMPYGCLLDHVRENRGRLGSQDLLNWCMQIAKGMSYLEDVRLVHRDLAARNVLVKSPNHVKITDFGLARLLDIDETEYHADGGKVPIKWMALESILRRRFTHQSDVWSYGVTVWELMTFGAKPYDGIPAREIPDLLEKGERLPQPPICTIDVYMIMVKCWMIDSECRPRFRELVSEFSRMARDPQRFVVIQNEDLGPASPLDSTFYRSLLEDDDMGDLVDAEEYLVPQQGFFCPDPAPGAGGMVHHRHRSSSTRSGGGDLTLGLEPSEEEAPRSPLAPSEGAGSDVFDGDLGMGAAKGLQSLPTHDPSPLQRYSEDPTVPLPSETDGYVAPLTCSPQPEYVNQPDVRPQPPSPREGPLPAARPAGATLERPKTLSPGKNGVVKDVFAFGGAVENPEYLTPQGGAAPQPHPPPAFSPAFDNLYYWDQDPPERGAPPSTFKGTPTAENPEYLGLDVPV
MEASURE_NAME: IC50 (µM)
Field: numeric (µM). Do not append units.

IC50 for Cn1cncc1C1=CN(c2ncnc3nc[nH]c23)CCS1 ?
26.4

====

target: PKCγ (Homo sapiens, UniProt P05129); construct: purchased Reaction Biology Corp; assay: HOTSPOT radiometric kinase assay; type: biochemical; details: 10 μM ATP; read-out: PKCγ IC50
MEASURE_NAME: pIC50
For clarity, pIC50 is expressed as the negative log10 of concentration in mol/L.

Fill blank: measured pIC50 of the compound Cn1cncc1C1=CN(c2ncnc3nc[nH]c23)CCS1 [Compound 1, Aplithianine A] is ____.
6.63

====

Please respond with reported IC50 for every item in the list.
target: AKT1 (Homo sapiens, UniProt P31749); assay: HOTSPOT radiometric kinase assay
Sequence (P31749 whole entry): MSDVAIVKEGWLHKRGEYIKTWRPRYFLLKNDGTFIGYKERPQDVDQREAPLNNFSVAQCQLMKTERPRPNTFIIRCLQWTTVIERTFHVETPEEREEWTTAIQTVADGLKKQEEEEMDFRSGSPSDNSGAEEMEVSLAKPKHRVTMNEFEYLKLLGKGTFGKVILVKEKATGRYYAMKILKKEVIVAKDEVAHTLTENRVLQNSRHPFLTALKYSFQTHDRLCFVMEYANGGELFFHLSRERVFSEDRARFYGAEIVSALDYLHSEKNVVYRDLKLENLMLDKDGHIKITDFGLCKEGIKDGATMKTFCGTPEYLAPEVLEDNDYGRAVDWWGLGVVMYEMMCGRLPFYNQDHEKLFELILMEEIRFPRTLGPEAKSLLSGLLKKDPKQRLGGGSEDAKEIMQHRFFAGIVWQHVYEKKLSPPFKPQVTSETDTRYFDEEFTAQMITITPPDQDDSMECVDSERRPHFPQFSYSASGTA

So what's the measured IC50 for this one? Cn1cncc1C1=CN(c2ncnc3nc[nH]c23)CCS1
0.043 to 0.189 µM

Same lookup for Cn1cnc(Br)c1C1=CN(c2ncnc3nc[nH]c23)CCS1 , please.
0.043 to 0.189 µM

====

molecular target: PKCv/PKD3 (Homo sapiens); construct: purchased Reaction Biology Corp; experiment: HOTSPOT radiometric kinase assay; assay type: biochemical; details: Table 4 dose-response; read-out: PKCnu IC50 Values
Sequence (O94806 whole entry): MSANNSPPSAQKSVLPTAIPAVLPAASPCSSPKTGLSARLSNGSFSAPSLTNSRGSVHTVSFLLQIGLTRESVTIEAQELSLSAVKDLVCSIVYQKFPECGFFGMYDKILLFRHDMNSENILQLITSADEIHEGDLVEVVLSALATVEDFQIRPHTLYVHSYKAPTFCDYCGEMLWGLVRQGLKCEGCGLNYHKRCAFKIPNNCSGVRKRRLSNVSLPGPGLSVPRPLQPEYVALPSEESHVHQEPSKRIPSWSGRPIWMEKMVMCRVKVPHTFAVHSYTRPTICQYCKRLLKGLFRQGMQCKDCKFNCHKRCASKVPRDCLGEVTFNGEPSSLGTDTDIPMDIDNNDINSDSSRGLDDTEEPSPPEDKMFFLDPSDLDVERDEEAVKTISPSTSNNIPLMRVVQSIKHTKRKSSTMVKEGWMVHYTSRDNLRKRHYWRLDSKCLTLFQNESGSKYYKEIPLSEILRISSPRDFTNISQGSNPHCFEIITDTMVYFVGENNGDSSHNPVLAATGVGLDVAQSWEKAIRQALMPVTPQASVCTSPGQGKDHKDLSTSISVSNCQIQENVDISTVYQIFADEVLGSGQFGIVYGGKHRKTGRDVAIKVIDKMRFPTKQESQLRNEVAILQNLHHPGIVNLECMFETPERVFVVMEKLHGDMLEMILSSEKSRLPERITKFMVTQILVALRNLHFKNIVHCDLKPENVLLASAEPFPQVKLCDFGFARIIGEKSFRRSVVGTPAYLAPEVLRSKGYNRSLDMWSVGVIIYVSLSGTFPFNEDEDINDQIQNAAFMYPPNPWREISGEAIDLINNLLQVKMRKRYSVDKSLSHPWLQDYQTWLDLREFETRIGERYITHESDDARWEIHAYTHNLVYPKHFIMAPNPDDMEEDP
MEASURE_NAME: pIC50
For clarity, pIC50 is expressed as the negative log10 of concentration in mol/L.

Could you share which pIC50 value was measured for Cn1cncc1C1=CN(c2ncnc3nc[nH]c23)CCS1 [Compound 1, Aplithianine A] ?
6.87

====

molecular target: GSK3β (Homo sapiens, UniProt P49841); assay: HOTSPOT radiometric kinase assay; settings: read-out: GSK3β IC50; 10 μM ATP
Sequence (P49841 whole entry): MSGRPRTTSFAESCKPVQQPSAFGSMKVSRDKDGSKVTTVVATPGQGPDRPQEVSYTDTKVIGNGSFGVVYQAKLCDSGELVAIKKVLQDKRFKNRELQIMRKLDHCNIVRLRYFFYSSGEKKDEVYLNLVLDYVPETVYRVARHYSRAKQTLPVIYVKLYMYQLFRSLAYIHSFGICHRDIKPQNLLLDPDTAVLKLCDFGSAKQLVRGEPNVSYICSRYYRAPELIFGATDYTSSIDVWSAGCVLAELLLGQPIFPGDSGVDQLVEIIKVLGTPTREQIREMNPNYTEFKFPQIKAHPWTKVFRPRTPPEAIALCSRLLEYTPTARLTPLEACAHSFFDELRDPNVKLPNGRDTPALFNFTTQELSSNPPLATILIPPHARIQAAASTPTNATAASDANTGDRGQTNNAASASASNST
MEASURE_NAME: IC50 (nM)
// units = nM; emit number, no label

State the recorded IC50 for this entry: Cn1cncc1C1=CN(c2ncnc3nc[nH]c23)CCS1
99

====

molecular target: UniProtKB Q9Y463; test: HOTSPOT radiometric kinase assay; type: biochemical; settings: 10 μM ATP; read-out: DYRK1B IC50
Sequence (Q9Y463 whole entry): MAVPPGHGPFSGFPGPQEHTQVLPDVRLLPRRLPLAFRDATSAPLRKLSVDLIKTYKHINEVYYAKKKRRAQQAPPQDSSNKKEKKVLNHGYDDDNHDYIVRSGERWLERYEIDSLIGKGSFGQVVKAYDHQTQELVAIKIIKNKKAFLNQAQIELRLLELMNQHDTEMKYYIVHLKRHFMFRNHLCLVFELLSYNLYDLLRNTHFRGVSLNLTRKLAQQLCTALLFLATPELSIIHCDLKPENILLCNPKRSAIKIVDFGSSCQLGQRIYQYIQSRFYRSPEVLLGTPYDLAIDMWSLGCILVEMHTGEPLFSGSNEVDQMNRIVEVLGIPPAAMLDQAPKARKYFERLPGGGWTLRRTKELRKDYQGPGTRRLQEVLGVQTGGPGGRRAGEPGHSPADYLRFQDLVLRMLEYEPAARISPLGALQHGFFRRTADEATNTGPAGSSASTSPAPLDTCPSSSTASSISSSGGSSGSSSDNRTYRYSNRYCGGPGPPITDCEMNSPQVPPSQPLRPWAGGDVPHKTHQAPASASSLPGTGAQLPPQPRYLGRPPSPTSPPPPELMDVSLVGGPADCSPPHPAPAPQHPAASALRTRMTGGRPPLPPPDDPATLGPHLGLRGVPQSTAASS
MEASURE_NAME: IC50 (nM)
Give your result in nM as a bare value.

Consider the molecule shown here: Cn1cncc1C1=CN(c2ncnc3nc[nH]c23)CCS1 What is its recorded IC50?
134
